The origin of these recorded values is paper PMC3076582.

Kindly state Uncorrected serum concentration, minimum to maximum for each of the entries shown.
assay type: in vivo, human; conditions: hospitalised patients

In: Fill blank: measured Uncorrected serum concentration, minimum to maximum of the compound COc1ccc2c3c1O[C@H]1C(=O)CC[C@@]4(O)[C@@H](C2)N(C)CC[C@]314 [Oxycodone, oxycodone, reference compound] is ____.
Out: 0–1,890 nM

In: Fill blank: measured Uncorrected serum concentration, minimum to maximum of the compound COc1ccc2c3c1O[C@H]1C(=O)CC[C@@]4(O)[C@@H](C2)NCC[C@]314 [Noroxycodone, noroxycodone] is ____.
Out: 0–3,571 nM

In: Fill blank: measured Uncorrected serum concentration, minimum to maximum of the compound CN1CC[C@]23c4c5ccc(O)c4O[C@H]2C(=O)CC[C@@]3(O)[C@H]1C5 [Oxymorphone, oxymorphone] is ____.
Out: 0 to 25 nM

In: Fill blank: measured Uncorrected serum concentration, minimum to maximum of the compound O=C1CC[C@@]2(O)[C@H]3Cc4ccc(O)c5c4[C@@]2(CCN3)[C@H]1O5 [Noroxymorphone, noroxymorphone] is ____.
Out: 0 to 509 nM
